Target: T1, cynomolgus monkey IL-33 expressed with a C-terminal hexahistidine tag (cynomolgus monkey)
T1 construct: also called MfIL-33-6His; Mf-IL-33-6His
T1 chain: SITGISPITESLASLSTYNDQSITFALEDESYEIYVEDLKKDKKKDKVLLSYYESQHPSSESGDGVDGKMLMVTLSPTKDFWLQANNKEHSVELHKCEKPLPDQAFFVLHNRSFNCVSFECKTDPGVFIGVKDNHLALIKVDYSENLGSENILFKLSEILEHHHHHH
Assay: SPR 25C, pH6.0 chase, mAb captured
REPORTED ENDPOINT: t½ (min)
Numbers only, in min.

{"BINDER": "H4H9662P (antibody, V domains shown, Human IgG4 Fc (H4H)) VH: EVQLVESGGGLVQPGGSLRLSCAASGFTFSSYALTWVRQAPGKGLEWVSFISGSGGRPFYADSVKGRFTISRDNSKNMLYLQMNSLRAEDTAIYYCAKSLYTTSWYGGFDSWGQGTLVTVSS VL: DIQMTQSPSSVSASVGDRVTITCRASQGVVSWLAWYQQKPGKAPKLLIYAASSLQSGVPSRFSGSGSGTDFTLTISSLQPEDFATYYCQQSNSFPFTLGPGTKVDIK", "t½ [min]": 99}

## Task Provide t½ value for the following binder: H4H9633P (antibody, human IgG4, V domains shown, Human IgG4 Fc (H4H)) VH: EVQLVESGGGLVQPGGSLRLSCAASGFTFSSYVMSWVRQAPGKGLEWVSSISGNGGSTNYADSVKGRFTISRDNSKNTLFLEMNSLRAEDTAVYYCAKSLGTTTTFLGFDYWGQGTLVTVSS VL: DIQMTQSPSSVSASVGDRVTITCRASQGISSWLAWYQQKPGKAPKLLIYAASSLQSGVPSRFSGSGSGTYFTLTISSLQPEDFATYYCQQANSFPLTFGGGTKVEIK
## Result 4
